# System: TNF-α production by human monocyte cell line P31/FUJ
# EXPERIMENT_DESCRIPTION: Inhibitory activity on TNF-α production in P31/FUJ cells
# Format: cell-based
# CONDITION_SET: Homo sapiens, P31-FUJ, PMA pretreated, LPS 100 ng/ml + interferon-γ 10 U/ml, overnight
VALUE_TYPE: IC50 (nM)

{"COMPOUND": "CCOC(=O)C1=CCOCC1S(=O)(=O)Nc1ccc(F)cc1Cl (centres unmarked)", "TARGET_ENTITY": "TNF-α production by human monocyte cell line P31/FUJ", "VALUE_TYPE": "IC50", "MEAS_VALUE": 20}
{"COMPOUND": "CCOC(=O)C1=CCCCC1S(=O)(=O)Cc1ccc(F)cc1Cl (centres unmarked)", "TARGET_ENTITY": "TNF-α production by human monocyte cell line P31/FUJ", "VALUE_TYPE": "IC50", "MEAS_VALUE": 200}

====

Listed below: IC50 values for each entry.
# System: NO production by RAW264.7 cells
# EXPERIMENT_DESCRIPTION: Inhibitory activity on NO production in LPS/interferon-γ stimulated RAW264.7 cells
# Format: cell-based, mouse
# CONDITION_SET: RAW264.7 cells, LPS 5 ng/ml + interferon-γ 1 U/ml, overnight, nitrite in culture supernatant
VALUE_TYPE: IC50 (nM)

{"COMPOUND": "CCOC(=O)C1=CCCCC1S(=O)(=O)Cc1ccc(F)cc1Cl (stereo not drawn) [Compound 6]", "MEAS_VALUE": 9.3}
{"COMPOUND": "CCOC(=O)C1=CCCCC1S(=O)(=O)Cc1ccc(F)cc1Cl (stereo not drawn) [Compound 5]", "MEAS_VALUE": 1000}
{"COMPOUND": "CCOC(=O)C1=CCCCC1S(=O)(=O)Cc1ccc(F)cc1Cl (stereo not drawn) [Compound 4]", "MEAS_VALUE": 29}

====

# Tested on: IL-1β production by human monocyte cell line P31/FUJ
# EXPERIMENT_DESCRIPTION: Inhibitory activity on IL-1β production in P31/FUJ cells
# Assay type: cell-based
# CONDITION_SET: Homo sapiens, P31-FUJ, PMA pretreated, LPS 100 ng/ml + interferon-γ 10 U/ml, overnight
VALUE_TYPE: IC50 (nM)

{"COMPOUND": "CCOC(=O)C1=CCOCC1S(=O)(=O)Nc1ccc(F)cc1Cl (stereo not shown) [Compound 8]", "TARGET_ENTITY": "IL-1β production by human monocyte cell line P31/FUJ", "MEAS_VALUE": 11}
